# study-target: HCV NS5B570n-BK (Hepatitis C virus genotype 1b)
# Construct: His tag (N); made in house; host or cells: E. coli strain M15
# Sequence (P26663 2421-2989): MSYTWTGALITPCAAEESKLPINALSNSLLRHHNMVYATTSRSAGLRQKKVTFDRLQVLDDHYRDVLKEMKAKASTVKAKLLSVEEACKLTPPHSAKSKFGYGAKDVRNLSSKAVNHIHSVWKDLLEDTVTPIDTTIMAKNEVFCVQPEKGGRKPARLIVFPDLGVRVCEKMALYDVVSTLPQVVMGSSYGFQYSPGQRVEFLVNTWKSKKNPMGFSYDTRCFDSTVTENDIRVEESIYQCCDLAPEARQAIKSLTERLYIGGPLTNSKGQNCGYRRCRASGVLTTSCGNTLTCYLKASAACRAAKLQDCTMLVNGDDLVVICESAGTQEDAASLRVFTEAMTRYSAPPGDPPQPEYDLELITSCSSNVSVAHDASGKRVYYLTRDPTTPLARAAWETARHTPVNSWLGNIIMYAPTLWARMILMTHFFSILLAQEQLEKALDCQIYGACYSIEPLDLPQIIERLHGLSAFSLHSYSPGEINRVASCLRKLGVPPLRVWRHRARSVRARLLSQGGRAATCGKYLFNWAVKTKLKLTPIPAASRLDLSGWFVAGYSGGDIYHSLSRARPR
# procedure-text: HCV NS5B RNA polymerase activity
# Format: biochemical, HCV BK strain
# condition-info: 200 nM polyA: oligo U16
assay-endpoint: pIC50
Here pIC50 is given on a logarithmic scale as minus log10 of the concentration in mol/L.

pIC50 lookup needed for NC(=O)COc1ccc2c(c1)S(=O)(=O)C=C(c1c(O)c3cc(F)ccc3n(Cc3ccc(F)cc3)c1=O)N2 [Compound I-20] , thanks.
6.82

Can you share its pIC50? I mean this compound: NS(=O)(=O)Nc1ccc2c(c1)S(=O)(=O)C=C(c1c(O)c3cc(F)ccc3n(CCC3CC3)c1=O)N2 [Compound I-40]
6.46

Give the measured pIC50 of CS(=O)(=O)Nc1ccc2c(c1)S(=O)(=O)C=C(c1c(O)c3cc(F)ccc3n(Cc3ccc(F)cc3)c1=O)N2 [Compound I-24] .
6.82

# pIC50 lookup, item CCS(=O)(=O)Nc1ccc2c(c1)S(=O)(=O)C=C(c1c(O)c3cc(F)ccc3n(CCC3CC3)c1=O)N2 [Compound I-32]
6.66

###

assay-endpoint: melting point

Find the recorded melting point belonging to `Cc1ccc2c(c1)c(O)c(C1=CS(=O)(=O)c3ccccc3N1)c(=O)n2Cc1ccc(F)cc1.[Na]` and report it.
> 250 °C

// query melting point value for entry `N#Cc1cccc(Cn2c(=O)c(C3=CS(=O)(=O)c4ccccc4N3)c(O)c3cc(F)ccc32)c1.[Na]`
> 250 °C

Please look up its melting point: `Nc1ccc2c(c1)S(=O)(=O)C=C(c1c(O)c3cc(F)ccc3n(Cc3ccc(F)cc3)c1=O)N2`
> 250 °C

Can you look up the measured melting point of `CN1C(c2nc(Cc3ccc(F)cc3)c3ccccc3c2O)=CS(=O)(=O)c2cc(Cl)ccc21` for me?
> 275 °C

# melting point lookup, item `O=c1c(C2=CS(=O)(=O)c3cc(NS(=O)(=O)C4CC4)ccc3N2)c(O)c2cc(F)ccc2n1CCC1CC1`
145 to 155 °C

What does the data say about its melting point? Entry: `CC(C)CCn1c(=O)c(C2=CS(=O)(=O)c3ccccc3N2)c(O)c2cc(Cl)ccc21`
194 to 197 °C

Given the entry `Cc1noc(C)c1S(=O)(=O)Nc1ccc2c(c1)S(=O)(=O)C=C(c1c(O)c3cc(F)ccc3n(CCC3CC3)c1=O)N2` , report its measured melting point.
150 to 157 °C

# melting point lookup, item `COc1ccc2c(c1)c(O)c(C1=CS(=O)(=O)c3ccccc3N1)c(=O)n2CCC1CC1`
220 to 221 °C

Look up melting point for this compound: `CC(C)CCn1c(=O)c(C2=CS(=O)(=O)c3ccc(C#N)cc3N2)c(O)c2ccccc21`
> 250 °C

Need melting point, item `CS(=O)(=O)Nc1ccc2c(c1)S(=O)(=O)C=C(c1c(O)c3cc(F)ccc3n(Cc3ccc(F)c(F)c3)c1=O)N2`
148.2 to 149.4 °C

Need melting point of `CC(C)CCN1C(=O)C(C2=CS(=O)(=O)c3ccccc3N2)=C(O)[C@@H]1C(C)(C)C` , thanks.
85 to 87 °C

Look up melting point for this compound: `CCCS(=O)(=O)Nc1ccc2c(c1)S(=O)(=O)C=C(c1c(O)c3cc(F)ccc3n(CCC3CC3)c1=O)N2`
145 to 150 °C

State the recorded melting point for this entry: `CC(C)(C)[C@H]1C(O)=C(C2=CS(=O)(=O)c3cc(N)ccc3N2)C(=O)N1Cc1ccc(F)cc1`
146 to 155 °C

What melting point value was documented for this compound, `COc1cc(CN2C(=O)C(C3=CS(=O)(=O)c4cc(NS(C)(=O)=O)ccc4N3)=C(O)[C@@H]2C(C)(C)C)ccc1F` ?
175 to 180 °C

What measured melting point goes with `N#Cc1cccc(Cn2c(=O)c(C3=CS(=O)(=O)c4ccccc4N3)c(O)c3cc(F)ccc32)c1` ?
> 250 °C

GET /values?readout=melting point&item= `CN(c1ccc2c(c1)S(=O)(=O)C=C(c1c(O)c3cc(F)ccc3n(CCC3CC3)c1=O)N2)S(C)(=O)=O`
208 to 212 °C

Entry `O=c1c(C2=CS(=O)(=O)c3ccccc3N2)c(O)c2ccccc2n1Cc1ccccc1F` has what melting point?
> 200 °C
